Please provide measured OD450 nm for the entries that follow.
# SYSTEM_TESTED: T1, human PD-L1^ECD-hFc protein (human, UniProt Q9NZQ7 19-239, biotinylated in the PD-1 binding ELISA (Table 3) and in the Octet assay (Table 12))
# T1 construct: The plain and the biotinylated protein are kept as one molecule; also called PD-L1-hFc; Immunogen A; not shown: human IgG Fc fragment (hFc)
# ASSAY_NOTES: ELISA, 10 nM mAb
One number for each entry.

>>> measured_value("chimeric anti-PD-L1 antibody 105C5D7 (antibody, V domains shown, Purified from hybridoma of Harbour H2L2 mice: human variable regions, rat constant regions) VH: EVQLVESGGGLVQPGGSLRLSCAASGFTFSSYWMSWVRQAPGKGLEWVANIKQDGNEKYYVDSVKGRFTISRDNAKNSLYLQMNSLRAEDTAVYYCARNIKWGDAFDIWGQGTMVTVSS VL: DIQMTQSPSSLSASVGDRVTITCRASQSISSYLNWYQQKPGKAPKLLIYAASSLQSGVPSRFSGSGSGTDFTLTISSLQPEDFAIYSCQQSYSIPLTFGGGTKVEIK")
1.56

List reported OD450 nm for each of these binders:
1. chimeric anti-PD-L1 antibody 78A11F6 (antibody, V domains shown, Purified from hybridoma of Harbour H2L2 mice: human variable regions, rat constant regions) VH: EVQLVESGGGLVQPGGSLRLSCAASGITFSSYWMSWVRQTPGKGLEWVANIKQDGSEKYYVKSVKGRFTISRDNAKNSLYLQMNSLRAEDTAVYYCVRDRAVPGTGAFDIWGQGTMVIVSS VL: DIQMTQSPSTLSASVGDRVTITCRASQSISNWLAWYQQKPGKAPKLLIYKASSLESGVPSRFSGSGSGTEFTLTISSLQPDDFATYYCQQYDSSLFTFGQGTKLEIK
2. chimeric anti-PD-L1 antibody 73D3G2 (antibody, V domains shown, Purified from hybridoma of Harbour H2L2 mice: human variable regions, rat constant regions) VH: EVQLVESGGGLVQPGGSLRLSCAASGFTFNTYWMNWVRQAPGRGLEWVANIKQDGGEKYYVDSVKGRFTISRDNAKNSLYLQMNSLRAEDTAMYYCARDGRSWYPDAFDIWGQGTVVTVSS VL: DIQMTQSPSTLSASVGDRVTITCRASQSISTWLAWYQQKLGKAPKLLIYEVSILESGVPSRFSGSGSGTEFTLTISSLQPDDFATYYCQQYHSFSSFGGGTRVEIK
3. chimeric anti-PD-L1 antibody 127D2F3 (antibody, V domains shown, Purified from hybridoma of Harbour H2L2 mice: human variable regions, rat constant regions) VH: EVQLVESGGGLVQPGGSLRLSCVASGFTFSSYWMSWVRQAPGKGLEWVANIKQDGSEKYYVDSVKGRLTISRDNAKNSLYLQMKSLRAEDTAVYYCARDPIYSSYFDYWGQGILVTVSS VL: DIQMTQSPSSLSASVGDRVTITCRASQSISNYLNWYQQKPGKAPKLLIYAASSLQSGVPSRFSGSGSGTDFTLTISSLQPEDFAAYYCQQSYGIPFTFGPGTKVDIK

Result:
1: 1.72; 2: 2.09; 3: 2.7
